endpoint label: MIC (µg/mL)
Give just the numeric value; µg/mL need not be written.

# get_value(readout= MIC, system= M. tuberculosis H37 RV) for CCCc1cc(=O)oc2c3c(c4c(c12)OC(C)(C)C=C4)O[C@H](C)[C@@H](C)[C@@H]3O [Calanolide A] 4.1

# get_value(readout= MIC, system= M. tuberculosis H37 RV) for CCC(C)c1cc(=O)oc2c3c(c4c(c12)OC(C)(C)C=C4)OC(C)C(C)C3O (centres unmarked) [Tamanolide D] 5.1

----------
- Tested on: 3T3 fibroblasts
- protocol text: MTT cytotoxicity on 3T3 fibroblasts
- Type: cell-based, murine
- assay context: Mus musculus, Fibroblast, 50% viability after 48 h
Could you please report measured IC50 for the items listed next?
Give just the numeric value; µg/mL need not be written.

Requested field: IC50. Item: CCCc1cc(=O)oc2c3c(c4c(c12)OC(C)(C)C=C4)O[C@H](C)[C@@H](C)C3=O [12-Oxocalanolide A] 36

Requested field: IC50. Item: C[C@@H]1C(=O)c2c(c3c(c4c(-c5ccccc5)cc(=O)oc24)OC(C)(C)C=C3)O[C@@H]1C 120

Requested field: IC50. Item: C=C(C)C(CC=C(C)C)CC1(CC=C(C)C)C(=O)C(C(CCC)CC(=O)O)=C(O)C2=C1O[C@H](C)[C@@H](C)C2=O (stereo partly shown) 41

Requested field: IC50. Item: CCCc1cc(=O)oc2c3c(c4c(c12)OC(C)(C)C=C4)O[C@H](C)[C@@H](C)[C@@H]3O [Calanolide A] 52
